- ASSAY_SYSTEM: TYK2 JH2 domain (Homo sapiens (Human))
- Sequence (P29597 589-875): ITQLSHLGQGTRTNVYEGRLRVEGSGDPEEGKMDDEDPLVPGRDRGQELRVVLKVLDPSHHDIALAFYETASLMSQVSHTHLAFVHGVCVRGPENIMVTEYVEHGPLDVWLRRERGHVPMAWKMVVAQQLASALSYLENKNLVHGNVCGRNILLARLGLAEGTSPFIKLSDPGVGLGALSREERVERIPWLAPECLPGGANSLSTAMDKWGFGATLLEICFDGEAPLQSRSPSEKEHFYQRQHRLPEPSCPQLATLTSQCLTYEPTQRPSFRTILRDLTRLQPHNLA
- EXPERIMENTAL_DETAILS: TYK2 JH2 NanoBRET assay
- Assay type: binding
- MEASUREMENT_CONTEXT: Table 20, read-out: TYK2 IC50
METRIC_NAME: IC50

query: What IC50 value was documented for this molecule, `CCC(=O)c1cnc(Nc2ccc(CN(C)C)cn2)cc1Nc1cc(F)cc(-c2ncn(C)n2)c1OC` ?
result: < 5 nM

query: Can you handle `CCC(=O)c1cnc(Nc2ccc(C(=O)NC)cn2)cc1Nc1cccc(-c2ncn(C)n2)c1OC` next?
result: < 5 nM

query: Can you handle `CCC(=O)c1cnc(Nc2ccc(C(C)(C)N(C)C)nn2)cc1Nc1cccc(-c2ncn(C)n2)c1OC` next?
result: 5 to 50 nM

query: Can you handle CCC(=O)c1cnc(Nc2ccc(O[C@@H]3CCN(C)C3)nn2)cc1Nc1cccc(-c2ncn(C)n2)c1OC [Compound 18FF] next?
result: 5 to 50 nM
